B1: Exostosin-1 (Homo sapiens), Q16394 (parent)
chain: MQAKKRYFILLSAGSCLALLFYFGGLQFRASRSHSRREEHSGRNGLHHPSPDHFWPRFPDALRPFVPWDQLENEDSSVHISPRQKRDANSSIYKGKKCRMESCFDFTLCKKNGFKVYVYPQQKGEKIAESYQNILAAIEGSRFYTSDPSQACLFVLSLDTLDRDQLSPQYVHNLRSKVQSLHLWNNGRNHLIFNLYSGTWPDYTEDVGFDIGQAMLAKASISTENFRPNFDVSIPLFSKDHPRTGGERGFLKFNTIPPLRKYMLVFKGKRYLTGIGSDTRNALYHVHNGEDVVLLTTCKHGKDWQKHKDSRCDRDNTEYEKYDYREMLHNATFCLVPRGRRLGSFRFLEALQAACVPVMLSNGWELPFSEVINWNQAAVIGDERLLLQIPSTIRSIHQDKILALRQQTQFLWEAYFSSVEKIVLTTLEIIQDRIFKHISRNSLIWNKHPGGLFVLPQYSSYLGDFPYYYANLGLKPPSKFTAVIHAVTPLVSQSQPVLKLLVAAAKSQYCAQIIVLWNCDKPLPAKHRWPATAVPVVVIEGESKVMSSRFLPYDNIITDAVLSLDEDTVLSTTEVDFAFTVWQSFPERIVGYPARSHFWDNSKERWGYTSKWTNDYSMVLTGAAIYHKYYHYLYSHYLPASLKNMVDQLANCEDILMNFLVSAVTKLPPIKVTQKKQYKETMMGQTSRASRWADPDHFAQRQSCMNTFASWFGYMPLIHSQMRLDPVLFKDQVSILRKKYRDIERL
partner: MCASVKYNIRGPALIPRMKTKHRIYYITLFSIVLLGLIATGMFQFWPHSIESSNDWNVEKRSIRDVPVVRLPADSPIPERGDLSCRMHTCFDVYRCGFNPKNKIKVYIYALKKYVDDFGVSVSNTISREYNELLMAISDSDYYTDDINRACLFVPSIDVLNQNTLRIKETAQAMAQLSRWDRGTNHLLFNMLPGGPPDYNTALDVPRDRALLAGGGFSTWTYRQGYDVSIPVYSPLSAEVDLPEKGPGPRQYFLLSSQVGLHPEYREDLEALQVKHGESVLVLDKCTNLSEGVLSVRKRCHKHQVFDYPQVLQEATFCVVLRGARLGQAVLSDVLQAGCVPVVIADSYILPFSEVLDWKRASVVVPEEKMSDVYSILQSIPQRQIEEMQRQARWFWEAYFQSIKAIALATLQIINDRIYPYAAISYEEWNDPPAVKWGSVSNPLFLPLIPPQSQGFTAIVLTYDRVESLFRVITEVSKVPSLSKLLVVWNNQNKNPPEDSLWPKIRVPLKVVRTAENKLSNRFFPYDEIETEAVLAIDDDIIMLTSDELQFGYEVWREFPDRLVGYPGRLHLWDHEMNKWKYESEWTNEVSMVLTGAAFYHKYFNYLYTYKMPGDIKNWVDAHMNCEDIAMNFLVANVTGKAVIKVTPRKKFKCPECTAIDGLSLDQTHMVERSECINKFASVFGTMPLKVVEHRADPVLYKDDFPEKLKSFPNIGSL

Variants of: B1
condition notes: with ext2_human EXT2, Q93063
measured attribute: effect of a mutation on the interaction

R346A: with no effect
D162N;D164N: with no effect
R280A: with no effect
